Reference for the values: PubChem BioAssay (NCI)

Exercise: state measured TGI for each of the compounds provided.
test system: HCT-15 colon; experiment: NCI tumour cell line growth inhibition, 48 h

In plain terms, Cc1ccccc1C(C#N)/C(=N/NC(=O)C(=O)NN)C(=O)Nc1cccc(C(F)(F)F)c1 (stereo not drawn) has a documented TGI of > 100 µM

In plain terms, `COc1cc(OC)nc(NC(=O)NS(=O)(=O)c2cccc3ncn(C)c(=O)c23)n1` has a documented TGI of > 100 µM

In plain terms, `N=c1c2c(=O)n3c(nc2nc2sc4ccc(Cl)cc4n12)-c1ccccc1Sc1ccccc1-3` has a documented TGI of 14.5 µM

In plain terms, CCC(CCCCC1CC[C@H]2CC(=O)C[C@@H]12)OC (stereo partly drawn) has a documented TGI of > 100 µM

In plain terms, `O=C1/C(=C/c2cccc([N+](=O)[O-])c2)N=C(c2ccccc2)N1c1ccc2c(c1)Sc1cc(N3C(=O)/C(=C/c4cccc([N+](=O)[O-])c4)N=C3c3ccccc3)ccc1N2` has a documented TGI of > 100 µM

In plain terms, `O=C(Nc1cccc(-n2cc(-c3ccncc3)c(-c3ccc(O)c(Cl)c3)n2)c1)Nc1ccc(Cl)c(C(F)(F)F)c1` has a documented TGI of 10.9 µM

In plain terms, COC(=O)CCC(=O)C(C#N)c1ccc(Cl)cc1Cl (stereo not drawn) has a documented TGI of > 100 µM

In plain terms, `Cn1c(=O)c2c(nc3sc4ncccc4c(=O)n32)n(C)c1=O` has a documented TGI of > 100 µM

In plain terms, `COC(=O)c1cc(O)ccc1NC(=O)c1ccc(O)cc1` has a documented TGI of > 100 µM

In plain terms, `N.N.N.N.O=S(=O)([O-])[O-].[Co+3].[OH3+].[OH3+]` has a documented TGI of > 100 µM

In plain terms, `O=C(Nc1ccc(Cl)cc1Cl)/C(Cl)=C1/Sc2ccccc2NC1=O` has a documented TGI of > 100 µM

In plain terms, `Clc1ccc(-c2cc(-c3nc4ccccc4[nH]3)no2)cc1` has a documented TGI of 45 µM

In plain terms, CC(=O)OCC(OC(C)=O)C(OC(C)=O)C(OC(C)=O)C(/C=N\Nc1nc2ccccc2c(=O)[nH]1)OC(C)=O (stereo not drawn) has a documented TGI of > 100 µM

In plain terms, `C(#Cc1ccccc1C#Cc1ccccn1)c1ccc(OCCCCCCOc2ccc(C#Cc3ccccc3C#Cc3ccccn3)cc2)cc1` has a documented TGI of 9.37 µM

In plain terms, `CCC1=C[C@H]2CN(CCc3c([nH]c4ccccc34)[C@@](C(=O)OC)(c3cc4c(cc3OC)N(C)[C@H]3[C@@](O)(C(=O)OC)[C@H](OC(C)=O)[C@]5(CC)[C@@H]6C[C@@H]6CN6CC[C@]43[C@@H]65)C2)C1` has a documented TGI of 3.31 µM

In plain terms, CC1CC(=O)NC2CC1C2(C)C (stereo not drawn) has a documented TGI of > 100 µM

In plain terms, CCOC(=O)C1C(=O)CC(C)(O)C(C(=O)OCC)C1c1ccc(OC)cc1 (stereo not drawn) has a documented TGI of > 100 µM

In plain terms, CC(=O)OCC1OC(OC2CC3C(C)(C)C(=O)CC[C@]3(C)C3CC[C@]45C[C@]4(CCC5[C@@H](C)CC(O)C(O)C(C)(C)O)[C@]23C)C(O)C(O)C1O (stereo partly drawn) has a documented TGI of 31.4 µM

In plain terms, COc1ccc(C2S/C(=C\c3cccc([N+](=O)[O-])c3)C(=O)N2NC(=O)Cc2ccccc2)cc1 (stereo not drawn) has a documented TGI of > 100 µM

In plain terms, O=C1c2ccc3ccccc3c2CCC1N1CCCCC1 (stereo not drawn) has a documented TGI of 37.4 µM

In plain terms, `C/C(CN1C(=O)c2ccccc2C1=O)=N\NS(C)(=O)=O` has a documented TGI of > 100 µM

In plain terms, CC[C@]12C=CCN3CCC4(c5cc(N=Nc6ccc([N+](=O)[O-])cc6)c(OC)cc5N(C)[C@H]4[C@@](O)(C(=O)OC)[C@@H]1OC(C)=O)[C@@H]32 (stereo partly drawn) has a documented TGI of 57.8 µM

In plain terms, Cc1ccc(C2CC(c3cccc(Nc4ccncc4)c3)=NN2c2ccc(Cl)cc2)cc1 (stereo not drawn) has a documented TGI of 3.43 µM

In plain terms, `COc1cc2c(cc1OC)C(=O)/C(=C/c1ccccc1)C2` has a documented TGI of > 100 µM

In plain terms, `CCNCCNc1cc(C2CCCC2)c(C#N)c2nc3ccccc3n12` has a documented TGI of 12.9 µM

In plain terms, CN(C)CC1CN(C(=O)Nc2ccccc2)C(=N)O1 (stereo not drawn) has a documented TGI of > 100 µM

In plain terms, `Cc1ccc(C(=O)Nc2ccc(CP(=O)(O)O)cc2)cc1NC(=O)Nc1cc(C(=O)Nc2ccc(CP(=O)(O)O)cc2)ccc1C` has a documented TGI of > 100 µM

In plain terms, `O=CN/C=C/c1ccccc1O` has a documented TGI of > 100 µM

In plain terms, `NNc1nc(-c2ccccn2)nc2sc3c(c12)CCCCCC3` has a documented TGI of > 100 µM

In plain terms, `COc1ccc2c(c1)CC[C@@H]1[C@@H]2CC[C@]2(C)c3c(cc(C(=O)c4ccccc4)c4sccc34)C[C@@H]12` has a documented TGI of > 100 µM

In plain terms, `COc1ccc(N=C2C(=Nc3ccc(OC)cc3)N(c3ccccc3[N+](=O)[O-])C(=S)N2c2ccc(OC)cc2)cc1` has a documented TGI of > 100 µM

In plain terms, Cc1cccc(C(O)c2ccccn2)c1O (stereo not drawn) has a documented TGI of > 100 µM

In plain terms, `CCC(C)(C)c1ccc(Oc2cccc(C(=O)O)c2)cc1` has a documented TGI of > 100 µM

In plain terms, Nc1nc(Cl)nc2c1ncn2C1CCC(CO)O1 (stereo not drawn) has a documented TGI of > 100 µM

In plain terms, `O=C1/C(=c2\c3ccccc3n3c(=O)c4ccccc4nc23)Nc2ccccc21` has a documented TGI of > 100 µM

In plain terms, CCOC(=O)C(SCCO)C(C(=O)OCC)n1cc(C)c(=O)[nH]c1=O (stereo not drawn) has a documented TGI of 25.7 µM

In plain terms, Cc1nn(C(=O)c2ccncc2)c2c1C(c1ccccc1O)SC(N)=N2 (stereo not drawn) has a documented TGI of > 10 µM

In plain terms, `CC[C@@H]1C[C@@H](O)[C@@H]2[C@H](O)[C@H](O)CN2C1` has a documented TGI of > 100 µM
